Give melting point for every item shown.

Previously resolved entries follow.
> print(dat)
                                   compound  value.reported
1  CCOC(Cc1ccc(OCCc2nc(-c3ccc(C(C)C)cc3)sc2C)c2ccccc12)C(=O)O (racemic)   111 to 113 °C
2  Cc1sc(-c2ccc(C(C)(C)C)cc2)nc1CCOc1ccc(CC(OC(C)C)C(=O)O)c2ccccc12 (racemic)     75 to 85 °C
3  CCOC(Cc1ccc(OCCc2nc(-c3ccccc3)sc2C)c2ccsc12)C(=O)O (racemic)   146 to 148 °C
4  CCOC(Cc1ccc(OCc2sc(-c3ccc(C(F)(F)F)cc3)nc2C)c2ccccc12)C(=O)O (racemic)   186 to 188 °C

List reported melting point for each of these compounds:
1. CCOC(Cc1ccc(OCCc2nc(-c3cc(OC)cc(OC)c3)sc2C)c2ccsc12)C(=O)O (racemic)
2. CCOC(Cc1ccc(OCCc2nc(-c3ccc(C(C)(C)C)cc3)sc2C)c2ccsc12)C(=O)O (racemic)

Result:
1. 148 to 150 °C
2. 152 to 154 °C

Record melting point per entry; entries follow.
1. COC(Cc1ccc(OCCc2nc(-c3ccc(C)cc3)sc2C)c2ccccc12)C(=O)O (racemic)
2. CCOC(Cc1ccc(OCCc2nc(-c3ccc(C(C)C)cc3)sc2C)c2ccsc12)C(=O)O (racemic)
3. COC(Cc1ccc(OCc2sc(-c3ccc(C(F)(F)F)cc3)nc2C)c2ccsc12)C(=O)O (racemic)

Result:
1: 155 to 156 °C; 2: 120 to 122 °C; 3: 140 to 142 °C (dec.)
